Value source: PubChem BioAssay (NCATS)

Molecular target: Cytochrome P450 2C9 (Homo sapiens)
Test: qHTS Assay for Inhibitors and Substrates of Cytochrome P450 2C9 (AID 883); further: on the % scale 0 is the no-effect control and ±100 the full control effect; nearly all actives have a fitted effect of over 60% in size
Conditions: recombinant CYP2C9, luciferin-H luminescence, 60 min; series mostly up to 57.1 µM
Records with an inconclusive call do not appear. Calls of active or inactive are those of the source. The call rests on the fitted dose curve; in most records, active means well fitted inhibition curve with a large enough effect; inconclusive means small, poorly fitted or top-dose-only effect; inactive means no such curve, though single readings can be large or run the other way.
Attribute: activity change, negative = inhibition
measured endpoint: activity change, negative = inhibition

1. CCCCCCC1=Cc2cc(OC)c(OC)cc2C(C(C(C)=O)C(=O)OCC)O1 (stereo unspecified)    25.3% [at 11.4 µM] (inactive)
2. CNc1ccccc1C(=O)OCC(C)=O    24.8% [at 11.4 µM] (inactive)
3. Cc1c(O)c(=O)c2ccccc2n1C    25.8% [at 11.4 µM] (inactive)
4. COc1ccc(C(=O)CC(=O)c2c(O)cc(OC)cc2OC)cc1    -6.49% [at 11.4 µM] (inactive)
5. CC1(O)C(=O)C=C2C=C3CCCN3C=C2C1=O (stereo unspecified)    3.99% [at 11.4 µM] (inactive)
6. CC(C)(C)OC(=O)C1=NOC2(C=CC(=O)C=C2)C1    -5.68% [at 11.4 µM] (inactive)
7. Cn1c(-c2ccccc2)c(O)c(=O)c2ccccc21    -1.19% [at 11.4 µM] (inactive)
8. CC1=C(C)CC(c2ccccc2)C(C(=O)c2ccccc2O)C1 (stereo unspecified)    -27.8% [at 11.4 µM] (inactive)
9. COC(=O)C1=NOC2(C=C(Br)C(OC)=C(Br)C2=O)C1 (stereo unspecified)    -4.18% [at 11.4 µM] (inactive)
10. C=C(CC(=O)OC)C[C@]1(CC(=O)OC)CC2(CC=C(C)C)C(=O)C(C(=O)c3ccccc3)=C(OC(=O)c3ccc(Br)cc3)C(CC=C(C)C)(C1)C2=O (stereo partly specified)    7.13% [at 11.4 µM] (inactive)
11. C=CCC1(O)C=CCC2C3C4C(OC(C)(C)C)C2C1C34 (stereo unspecified)    -12.7% [at 11.4 µM] (inactive)

###

Experiment: qHTS for Inhibitors of Plasmodium falciparum (7G8) proliferation (AID 504316);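 further: 0% = DMSO vehicle and -100% = 0.29 µM artemisinin full kill; nearly all actives have a fitted effect of over 65% in size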
Conditions: P. falciparum 7G8 in erythrocytes, SYBR Green DNA, 72 h; series mostly up to 6.7 µM
Inconclusive results are not listed. Active and inactive are the calls of the source. Calls come from the whole dose curve; as a rule, active = well fitted inhibition curve with a large enough effect; inconclusive = small, poorly fitted or top-dose-only effect; inactive = flat fitted curve, though single readings scatter.
measured endpoint: outcome

1. Cc1c(O)ccc2c1OCO2    inactive
2. COC(=O)[C@H]1O[C@@H](c2cc(OC)c(C)c(OC)c2OCc2ccccc2)[C@H](C)[C@H]2O[C@@]12C    inactive
3. C[C@H]1C(C(=O)N2CCCC2)=Cc2[nH]c(=O)[nH]c2C=C1c1ccccc1    inactive
4. COc1ccc(-c2nc3c(c4c2C[C@H](c2ccccc2)OC4)CN(S(=O)(=O)c2ccc(Cl)c4nonc24)CC3)c(C)c1    inactive
5. COC(=O)CC=C1c2ccccc2[C@@H](OC)[C@@H]1C    inactive
6. COC(=O)C1=C(C)N(Cc2ccccc2)C(=S)NC1c1ccccc1 (stereo not given)    inactive
7. CC(C)CON=C1C[C@@H](O)[C@@H](O)[C@@H]2[C@H]3C(=O)N(C4CCCCC4)C(=O)[C@@H]3CC[C@@H]12    inactive
8. c1ccc(CCc2nc(-c3ccccc3)oc2Nc2ccc3ccccc3c2)cc1    inactive
9. Cc1cc(O)cc(O)c1C(=O)OC1(C)C(=O)C=C2C=C(C=CCO)OC=C2C1=O (stereo not given)    inactive
10. C=CCN1C(=O)[C@]2(O[C@H](C)CC3=CCCC32)c2c(Br)cccc21 (stereo not given in full)    inactive
